Hey, just so you know, these numbers are from patent US4401660A.

- Tested on: Haemophilus influenzae R252
- ASSAY INFO: MIC, standard agar-dilution assay (Table II)
- Format: cell-based
- Design: unit not given here
- TEST PARAMETERS: Haemophilus influenzae R252, ampicillin-resistant strain
Attribute: minimal inhibitory concentration (MIC)

- MOLECULE: "CCC1OC(=O)CC(O)C(C)C(OC2OC(C)C(O)C(N(C)C)C2O)C(CC=O)CC(C)C(=O)C=CC(C)=CC1COC(=O)CCc1ccccc1 (stereo not drawn)"
  ASSAY TARGET: "Haemophilus influenzae R252"
  minimal inhibitory concentration (MIC): 0.25
- MOLECULE: "CCC1OC(=O)CC(O)C(C)C(OC2OC(C)C(O)C(N(C)C)C2O)C(CC=O)CC(C)C(=O)C=CC(C)=CC1COC(=O)c1ccccc1 (stereo not drawn)"
  ASSAY TARGET: "Haemophilus influenzae R252"
  minimal inhibitory concentration (MIC): 2
- MOLECULE: "CCC1OC(=O)CC(O)C(C)C(OC2OC(C)C(O)C(N(C)C)C2OC(C)=O)C(CC=O)CC(C)C(=O)C=CC(C)=CC1COC(=O)C(Cl)(Cl)Cl (stereo not drawn)"
  ASSAY TARGET: "Haemophilus influenzae R252"
  minimal inhibitory concentration (MIC): 1
- MOLECULE: "CCC(=O)OC1C(OC2C(CC=O)CC(C)C(=O)C=CC(C)=CC(CO)C(CC)OC(=O)CC(O)C2C)OC(C)C(O)C1N(C)C (stereo not drawn)"
  ASSAY TARGET: "Haemophilus influenzae R252"
  minimal inhibitory concentration (MIC): 4
- MOLECULE: "CCC1OC(=O)CC(O)C(C)C(OC2OC(C)C(O)C(N(C)C)C2OC(C)=O)C(CC=O)CC(C)C(=O)C=CC(C)=CC1COC(=O)OC (stereo not drawn)"
  ASSAY TARGET: "Haemophilus influenzae R252"
  minimal inhibitory concentration (MIC): 2
- MOLECULE: "CCC1OC(=O)CC(O)C(C)C(OC2OC(C)C(O)C(N(C)C)C2OC(C)=O)C(CC=O)CC(C)C(=O)C=CC(C)=CC1COC(C)=O (stereo not drawn)"
  ASSAY TARGET: "Haemophilus influenzae R252"
  minimal inhibitory concentration (MIC): 4
- MOLECULE: "CCC1OC(=O)CC(O)C(C)C(OC2OC(C)C(OC(C)=O)C(N(C)C)C2OC(C)=O)C(CC=O)CC(C)C(=O)C=CC(C)=CC1COC(=O)c1ccccc1 (stereo not drawn)"
  ASSAY TARGET: "Haemophilus influenzae R252"
  minimal inhibitory concentration (MIC): 2
- MOLECULE: "CCC1OC(=O)CC(O)C(C)C(OC2OC(C)C(O)C(N(C)C)C2O)C(CC=O)CC(C)C(=O)C=CC(C)=CC1COC(=O)COc1ccccc1 (stereo not drawn)"
  ASSAY TARGET: "Haemophilus influenzae R252"
  minimal inhibitory concentration (MIC): 0.5
- MOLECULE: "CCC1OC(=O)CC(O)C(C)C(OC2OC(C)C(O)C(N(C)C)C2O)C(CC=O)CC(C)C(=O)C=CC(C)=CC1COS(=O)(=O)c1ccc(NC(C)=O)cc1 (stereo not drawn)"
  ASSAY TARGET: "Haemophilus influenzae R252"
  minimal inhibitory concentration (MIC): 2
- MOLECULE: "CCC1OC(=O)CC(O)C(C)C(OC2OC(C)C(O)C(N(C)C)C2OC(C)=O)C(CC=O)CC(C)C(=O)C=CC(C)=CC1COC(=O)C=Cc1ccccc1 (stereo not drawn)"
  ASSAY TARGET: "Haemophilus influenzae R252"
  minimal inhibitory concentration (MIC): 4
- MOLECULE: "CCCCC(=O)OCC1C=C(C)C=CC(=O)C(C)CC(CC=O)C(OC2OC(C)C(OC(C)=O)C(N(C)C)C2OC(C)=O)C(C)C(O)CC(=O)OC1CC (stereo not drawn)"
  ASSAY TARGET: "Haemophilus influenzae R252"
  minimal inhibitory concentration (MIC): 2
- MOLECULE: "CCC1OC(=O)CC(O)C(C)C(OC2OC(C)C(O)C(N(C)C)C2O)C(CC=O)CC(C)C(=O)C=CC(C)=CC1COC(=O)C12CC3CC(CC(C3)C1)C2 (stereo not drawn)"
  ASSAY TARGET: "Haemophilus influenzae R252"
  minimal inhibitory concentration (MIC): 16
- MOLECULE: "CCC1OC(=O)CC(O)C(C)C(OC2OC(C)C(O)C(N(C)C)C2OC(C)=O)C(CC=O)CC(C)C(=O)C=CC(C)=CC1COC(=O)CCCCc1ccccc1 (stereo not drawn)"
  ASSAY TARGET: "Haemophilus influenzae R252"
  minimal inhibitory concentration (MIC): 2
- MOLECULE: "CCC(=O)OCC1C=C(C)C=CC(=O)C(C)CC(CC=O)C(OC2OC(C)C(OC(=O)CC)C(N(C)C)C2OC(=O)CC)C(C)C(O)CC(=O)OC1CC (stereo not drawn)"
  ASSAY TARGET: "Haemophilus influenzae R252"
  minimal inhibitory concentration (MIC): 4
- MOLECULE: "CCC1OC(=O)CC(O)C(C)C(OC2OC(C)C(OC(C)=O)C(N(C)C)C2OC(C)=O)C(CC=O)CC(C)C(=O)C=CC(C)=CC1COC(=O)Cc1ccccc1 (stereo not drawn)"
  ASSAY TARGET: "Haemophilus influenzae R252"
  minimal inhibitory concentration (MIC): 1
- MOLECULE: "CCC1OC(=O)CC(O)C(C)C(OC2OC(C)C(OC(C)=O)C(N(C)C)C2OC(C)=O)C(CC=O)CC(C)C(=O)C=CC(C)=CC1COC(C)=O (stereo not drawn)"
  ASSAY TARGET: "Haemophilus influenzae R252"
  minimal inhibitory concentration (MIC): 8
- MOLECULE: "CCC1OC(=O)CC(O)C(C)C(OC2OC(C)C(O)C(N(C)C)C2OC(C)=O)C(CC=O)CC(C)C(=O)C=CC(C)=CC1COC(=O)C(C)(C)C (stereo not drawn)"
  ASSAY TARGET: "Haemophilus influenzae R252"
  minimal inhibitory concentration (MIC): 1
- MOLECULE: "CCC1OC(=O)CC(O)C(C)C(OC2OC(C)C(O)C(N(C)C)C2OC(C)=O)C(CC=O)CC(C)C(=O)C=CC(C)=CC1CO (stereo not drawn)"
  ASSAY TARGET: "Haemophilus influenzae R252"
  minimal inhibitory concentration (MIC): 4
- MOLECULE: "CCC1OC(=O)CC(O)C(C)C(OC2OC(C)C(O)C(N(C)C)C2O)C(CC=O)CC(C)C(=O)C=CC(C)=CC1COC(=O)C(N)c1ccccc1 (stereo not drawn)"
  ASSAY TARGET: "Haemophilus influenzae R252"
  minimal inhibitory concentration (MIC): 2
- MOLECULE: "CCC1OC(=O)CC(O)C(C)C(OC2OC(C)C(O)C(N(C)C)C2O)C(CC=O)CC(C)C(=O)C=CC(C)=CC1COC(=O)Cc1ccccc1 (stereo not drawn)"
  ASSAY TARGET: "Haemophilus influenzae R252"
  minimal inhibitory concentration (MIC): 1
- MOLECULE: "CCC(=O)OCC1C=C(C)C=CC(=O)C(C)CC(CC=O)C(OC2OC(C)C(O)C(N(C)C)C2O)C(C)C(O)CC(=O)OC1CC (stereo not drawn)"
  ASSAY TARGET: "Haemophilus influenzae R252"
  minimal inhibitory concentration (MIC): 4
